system-name: recombinant BRD4 BD1 (Homo sapiens, UniProt O60885)
Construct: for recombinant BRD4 BD1 and BRD4 BD2 proteins
test-details: Competitive fluorescence-polarization (FP) binding assay, BRD4 BD1; further: probe 1.5 nM
measurement-parameters: competitive FP assay; protein 10 nM, probe […]; read-out: IC50 (nM) BRD4 BD1
quantity-kind: log10 IC50 (log10 of the value in nM)
The base-10 logarithm of IC50, taken with IC50 in nM, is what appears here.

*Q* # input compound: COc1cc2c(cc1-c1c(C)noc1C)[nH]c1nc(C)nc(Nc3c(C(C)C)cnn3C)c12 [Cpd. No. 79] ; wanted: its log10 IC50
*A* 0.97

*Q* What value of measured log10 IC50 is listed for COc1cc2c(cc1-c1c(C)noc1C)[nH]c1nc(C)nc(Nc3c(C)c(C)nn3C(C)(C)C)c12 [Cpd. No. 185] ?
*A* 0.69

*Q* Could you tell me which log10 IC50 is on file for COc1cc2c(cc1-c1c(C)noc1C)[nH]c1nc(C)nc(Nc3cc(C)cc(C)c3)c12 [Cpd. No. 237] ?
*A* 1.00

*Q* Consider the compound shown here: COc1cc2c(cc1-c1c(C)noc1C)[nH]c1nc(C)nc(Nc3nnc4ccccn34)c12 [compound 101] What is its recorded log10 IC50?
*A* 2.99

*Q* Suppose we examine the compound COc1cc2c(cc1-c1c(C)noc1C)[nH]c1nc(C)nc(Nc3cc(C4CC4)nn3C)c12 [Cpd. No. 121] ; what log10 IC50 value has been reported?
*A* 0.20

*Q* Item COc1cc2c(cc1-c1c(C)noc1C)[nH]c1nc(C)nc(Nc3c(C)c(C4CC4)nn3C)c12 [Cpd. No. 147] has what recorded log10 IC50?
*A* 1.78

*Q* For the compound shown here, COc1cc2c(cc1-c1c(C)noc1C)[nH]c1nc(C)nc(Nc3c(C)c(C)nn3C(C)C)c12 [Cpd. No. 81] , give the reported log10 IC50.
*A* 0.71

---

For each entry below, report its IC50 value.
Tested on: MDA-MB-436
test-details: Cell growth inhibition, MDA-MB-436 breast cancer cells (WST-8)
Type: cell-based
measurement-parameters: Homo sapiens, MDA-MB-436, 96 h; 4 days; read-out: IC50 (nM) MDA-MB-436 Cell Line (WST assay)
Enter your answer as a number in nM; do not include the unit.

*Q* Endpoint output: IC50 of COc1cc2c(cc1-c1c(C)noc1C)[nH]c1nc(C)nc(Nc3cccc4c3ccn4C)c12 . Value?
*A* 117

*Q* Reported IC50, compound COc1cc2c(cc1-c1c(C)noc1C)[nH]c1nc(C)nc(Nc3cncc(C)c3)c12 : ____
*A* 181

*Q* Given the entry COc1cc2c(cc1-c1c(C)noc1C)[nH]c1nc(C)nc(Nc3cn(C)nc3C(C)(C)C)c12 , report its measured IC50.
*A* 47.5

*Q* Need IC50, item COc1cc2c(cc1-c1c(C)noc1C)[nH]c1nc(C)nc(Nc3cccc4cnccc34)c12
*A* 209

*Q* What value of measured IC50 is listed for COc1cc2c(cc1-c1c(C)noc1C)[nH]c1nc(C)nc(Nc3cc(C(F)(F)F)nn3C(C)C)c12 ?
*A* 84.8

*Q* Tell me the measured IC50 of COc1cc2c(cc1-c1c(C)noc1C)[nH]c1nc(C)nc(Nc3nn(C)c4c(F)cccc34)c12 , please.
*A* 201

*Q* Field request: IC50 | item: COc1cc2c(cc1-c1c(C)noc1C)[nH]c1nc(C)nc(Nc3cc(C4CC4)nn3C3CC3)c12
*A* 34

*Q* Which value of IC50 has been reported for COc1cc2c(cc1-c1c(C)noc1C)[nH]c1nc(C)nc(Nc3cccc(Cl)c3)c12 in the records?
*A* 180

*Q* Requested field: IC50. Item: COc1cc2c(cc1-c1c(C)noc1C)[nH]c1nc(C)nc(Nc3cc(C4CC4)nn3C(C)C)c12
*A* 14.2

*Q* Which measured IC50 value corresponds to CCc1nn(C)c(CC)c1Nc1nc(C)nc2[nH]c3cc(-c4c(C)noc4C)c(OC)cc3c12 ?
*A* 46

*Q* # get_value(readout='IC50', item= COc1cc2c(cc1-c1c(C)noc1C)[nH]c1nc(C)nc(Nc3cc(C)nn3-c3cccc(Cl)c3)c12 )
*A* 142

*Q* Can you look up the measured IC50 of COc1cc2c(cc1-c1c(C)noc1C)[nH]c1nc(C)nc(Nc3c(C)c(C)nn3C3CCC3)c12 for me?
*A* 121

*Q* Value lookup for IC50; key = COc1cc2c(cc1-c1c(C)noc1C)[nH]c1nc(C)nc(Nc3sc(-c4ncco4)nc3-c3ccccc3)c12
*A* 1520

*Q* I'd like to know its IC50. The compound in question is COc1cc2c(cc1-c1c(C)noc1C)[nH]c1nc(C)nc(Nc3cnn(C)c3C)c12
*A* 222

*Q* Using the record for COc1cc2c(cc1-c1c(C)noc1C)[nH]c1nc(C)nc(Nc3ccnn3C3CCCC3)c12 , report its IC50.
*A* 52.9

---

system-name: recombinant BRD4 BD1 (Homo sapiens, UniProt O60885)
Construct: for recombinant BRD4 BD1 and BRD4 BD2 proteins
test-details: Competitive fluorescence-polarization (FP) binding assay, BRD4 BD1; further: probe 1.5 nM
measurement-parameters: competitive FP assay; protein 10 nM, probe […]; read-out: IC50 (nM) BRD4 BD1
Could you please report measured IC50 for the items listed next?
Output spec: scalar in nM, unitless text.

*Q* State the recorded IC50 for this entry: COc1cc2c(cc1-c1c(C)noc1C)[nH]c1nc(C)nc(Nc3cc(Cl)ccc3F)c12 [Cpd. No. 224]
*A* 105

*Q* Give its IC50 value. Item: COc1cc2c(cc1-c1c(C)noc1C)[nH]c1nc(C)nc(Nc3cn(C)nc3C3CC3)c12 [Cpd. No. 195]
*A* 16.6

*Q* What value of IC50 has been recorded for this entry: COc1cc2c(cc1-c1c(C)noc1C)[nH]c1nc(C)nc(Nc3c(F)c(C4CC4)nn3C)c12 [Cpd. No. 249]
*A* 29

*Q* Look up IC50 for this compound: COc1cc2c(cc1-c1c(C)noc1C)[nH]c1nc(C)nc(Nc3nn(C)c4cccc(F)c34)c12 [Cpd. No. 132]
*A* 68.6

*Q* Which IC50 is reported for this compound? COc1cc2c(cc1-c1c(C)noc1C)[nH]c1nc(C)nc(Nc3c4c(nn3C(C)C)CCCC4)c12 [Cpd. No. 138]
*A* 4.2

*Q* Which IC50 is listed for CCn1nc2c(c1Nc1nc(C)nc3[nH]c4cc(-c5c(C)noc5C)c(OC)cc4c13)CCC2 [Cpd. No. 141] ?
*A* 4.6

*Q* // query IC50 value for entry COc1cc2c(cc1-c1c(C)noc1C)[nH]c1nc(C)nc(Nc3cc(C(C)(C)C)n[nH]3)c12 [Cpd. No. 126]
*A* 11

*Q* Given the entry COc1cc2c(cc1-c1c(C)noc1C)[nH]c1nc(C)nc(Nc3c4c(nn3C(C)C)CCC4)c12 [Cpd. No. 137] , report its measured IC50.
*A* 4.5

*Q* Entry under review: CCn1nc(C)c(C2CC2)c1Nc1nc(C)nc2[nH]c3cc(-c4c(C)noc4C)c(OC)cc3c12 [Cpd. No. 143] . Reported IC50?
*A* 27.9

*Q* State the recorded IC50 for this entry: COc1cc2c(cc1-c1c(C)noc1C)[nH]c1nc(C)nc(Nc3c(C)cnn3C3CCC3)c12 [Cpd. No. 198]
*A* 6.9

*Q* Form field: reported IC50 of COc1cccc(Nc2nc(C)nc3[nH]c4cc(-c5c(C)noc5C)c(OC)cc4c23)c1 [Cpd. No. 213]
*A* 54

*Q* Can you share its IC50? I mean this compound: COc1cc2c(cc1-c1c(C)noc1C)[nH]c1nc(C)nc(Nc3csc4ncccc34)c12 [Cpd. No. 103]
*A* 29

*Q* What value of IC50 has been recorded for this entry: COc1cc2c(cc1-c1c(C)noc1C)[nH]c1nc(C)nc(Nc3cccc4ccncc34)c12 [Cpd. No. 223]
*A* 47

*Q* Item COc1cc2c(cc1-c1c(C)noc1C)[nH]c1nc(C)nc(Nc3cnc(C)n3C)c12 [Cpd. No. 171] has what recorded IC50?
*A* 153

*Q* Fill in: IC50 of COc1cc2c(cc1-c1c(C)noc1C)[nH]c1nc(C)nc(Nc3cccc4ncccc34)c12 [Cpd. No. 211] is ___
*A* 16

*Q* Any idea what its IC50 is? The compound is COc1cc2c(cc1-c1c(C)noc1C)[nH]c1nc(C)nc(Nc3cn(C)nc3C(C)C)c12 [Cpd. No. 181]
*A* 4.4

*Q* For COc1cc2c(cc1-c1c(C)noc1C)[nH]c1nc(C)nc(Nc3cccc(C)c3)c12 [Cpd. No. 212] , what is its reported IC50?
*A* 18

*Q* Please look up its IC50: COc1cc2c(cc1-c1c(C)noc1C)[nH]c1nc(C)nc(Nc3cc(C(C)C)nn3C)c12 [Cpd. No. 65]
*A* 6.1

*Q* GET /values?readout=IC50&item= COc1cc2c(cc1-c1c(C)noc1C)[nH]c1nc(C)nc(Nc3c(C)cnn3C)c12 [Cpd. No. 76]
*A* 29.4

*Q* So what's the measured IC50 for this one? COc1cc2c(cc1-c1c(C)noc1C)[nH]c1nc(C)nc(Nc3cc(C)nn3C3CC3)c12 [Cpd. No. 192]
*A* 30.1
